Molecular target: UniProtKB Q86V86
Assay: radiometric filter-binding kinase assay
Settings: compound 1.0 µM
endpoint-name: residual activity (%)
Give the value, in units of %, as a plain number.

Below, 4 compounds whose answers are already recorded.
compound: FC(F)(F)c1ccc(-c2ccc(Oc3cncc4sc(-c5nn[nH]n5)cc34)cc2)cc1
residual activity / %: 74
//
compound: NC(=O)c1cc(-c2ccnc(NC3CCCCC3)c2)nc(N2CCNCC2)c1
residual activity / %: 58
//
compound: CC1=C(CO)C(=O)O[C@@H]([C@@H](C)[C@H]2CC[C@H]3[C@@H]4C[C@H]5O[C@]56[C@@H](O)C=CC(=O)[C@]6(C)C4CC[C@]23C)C1 (stereo not given in full)
residual activity / %: 110
//
compound: COc1ccc(-n2ncc3cnc(Nc4cc(OC)c(OC)c(OCCCN5CCN(C)CC5)c4)nc32)cc1
residual activity / %: 63

Lab note: measured residual activity of `NCC(=O)Nc1ccc(-n2nc(C(F)(F)F)cc2-c2ccc3c(ccc4ccccc43)c2)cc1` was 99

----------
Listing of recorded residual activity by entry.
Target: STK3 (human)
Assay: radiometric filter-binding kinase assay
Conditions: compound 1.0 µM
Express the result in % but write the number alone.

Given item `O=C(N[C@@H](COc1ccc2[nH]c(=O)[nH]c2c1)c1ccccc1)c1cccn(Cc2ccc(F)c(F)c2)c1=O` , the value recorded as its residual activity is 105

residual activity for `COc1cc(O)c2c(c1)/C=C/C[C@H](O)[C@H](O)C(=O)/C=C\C[C@H](C)OC2=O` is 89

Given item `Cc1cc(SCc2sc(-c3ccc(C(F)(F)F)cc3)nc2C)ccc1OCC(=O)O` , the value recorded as its residual activity is 97

For reference, reported residual activity for `CCCCCc1ccc(/C=C/[C@H](O)[C@@H](CO)NC)cc1` stands at 90

The compound identified as `O=C(Nc1nc2cc(C(F)(F)F)cc(NC3CC3)n2n1)c1cccnc1` registered its residual activity at 93

----------
Biological target: UniProt:O75582
Sequence (O75582 whole entry, looked up): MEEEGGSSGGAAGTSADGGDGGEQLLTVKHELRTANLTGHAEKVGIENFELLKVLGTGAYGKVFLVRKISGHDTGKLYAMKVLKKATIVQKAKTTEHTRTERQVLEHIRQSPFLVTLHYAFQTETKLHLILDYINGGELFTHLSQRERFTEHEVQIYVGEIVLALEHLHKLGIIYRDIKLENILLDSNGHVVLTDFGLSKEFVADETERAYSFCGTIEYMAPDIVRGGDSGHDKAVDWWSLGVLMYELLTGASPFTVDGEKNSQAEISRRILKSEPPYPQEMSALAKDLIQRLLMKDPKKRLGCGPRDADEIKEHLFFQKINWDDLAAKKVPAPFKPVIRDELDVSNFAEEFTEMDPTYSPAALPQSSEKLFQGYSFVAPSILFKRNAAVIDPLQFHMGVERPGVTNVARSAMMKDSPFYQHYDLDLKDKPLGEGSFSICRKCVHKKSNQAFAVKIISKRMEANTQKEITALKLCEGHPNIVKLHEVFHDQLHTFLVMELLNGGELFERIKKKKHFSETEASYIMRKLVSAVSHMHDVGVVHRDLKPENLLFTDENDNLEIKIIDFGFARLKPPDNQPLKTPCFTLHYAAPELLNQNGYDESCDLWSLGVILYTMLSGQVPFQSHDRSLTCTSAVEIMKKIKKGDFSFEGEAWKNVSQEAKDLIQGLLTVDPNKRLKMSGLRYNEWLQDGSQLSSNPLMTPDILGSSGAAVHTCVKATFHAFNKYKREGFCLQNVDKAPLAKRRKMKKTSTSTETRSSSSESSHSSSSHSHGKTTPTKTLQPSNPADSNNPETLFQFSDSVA
Assay: radiometric filter-binding kinase assay
Conditions: compound 0.1 µM
endpoint-name: residual activity (%)
Only the number, expressed in %, is required.

compound: CCCCCc1ccc(/C=C/[C@H](O)[C@@H](CO)NC)cc1
residual activity, %: 110
--
compound: CCc1cncnc1N1CCN(Cc2nc3cc(C(F)(F)F)ccc3[nH]2)CC1
residual activity, %: 80
--
compound: CN1CCN(CCOc2cc(OC3CCOCC3)c3c(Nc4c(Cl)ccc5c4OCO5)ncnc3c2)CC1
residual activity, %: 103

Observed residual activity, UniProt:O75582, `NC(=O)c1cc(-c2ccnc(NC3CCCCC3)c2)nc(N2CCNCC2)c1` : 97

Tested on UniProt:O75582, the item CC1=C(CO)C(=O)O[C@@H]([C@@H](C)[C@H]2CC[C@H]3[C@@H]4C[C@H]5O[C@]56[C@@H](O)C=CC(=O)[C@]6(C)C4CC[C@]23C)C1 (stereo partly drawn) showed residual activity equal to 104

I looked up `Cc1cccc(-c2nn(C(=S)Nc3ccccc3)cc2-c2ccnc3ccccc23)n1` and its residual activity for UniProt:O75582 was 110

Simply: CNC(=O)C1[C@H]2O[C@@](C)([C@@H]1N)n1c3ccccc3c3c4c(c5c6ccccc6n2c5c31)C(=O)NC4 (stereo partly drawn) , UniProt:O75582, residual activity = 10

Record `NC1(c2ccc(-c3nc4ccn5c(=O)[nH]nc5c4cc3-c3ccccc3)cc2)CCC1` / UniProt:O75582, residual activity recorded as 84

Field residual activity (UniProt:O75582), entry `O=C(Nc1ccccc1-c1cn2c(CN3CCNCC3)csc2n1)c1cnc2ccccc2n1` : 94

Here `NC(=O)Nc1ccc2c(c1)/C(=C/c1cc(-c3cccnc3)c[nH]1)C(=O)N2` was tested on UniProt:O75582, and its residual activity came to 98

Record `C=CC(=O)N1CCC[C@@H](n2nc(-c3ccc(Oc4ccccc4)cc3)c3c(N)ncnc32)C1` / UniProt:O75582, residual activity recorded as 94

Per the reported UniProt:O75582 data, `C/C(=C1/C(=O)Nc2ccc(NC(N)=O)cc21)c1ccc[nH]1` has residual activity of 80

Entry `Cn1c(=O)c2c(ncn2C)n(C)c1=O` : residual activity on UniProt:O75582 = 80

Short answer on UniProt:O75582 for `CCn1c(-c2nonc2N)nc2cncc(CNC3CCNCC3)c21` , residual activity: 22

The recorded residual activity with UniProt:O75582 for `Cc1ccc(Sc2cnc(Nc3cccc(Br)n3)s2)cc1C(=O)N1CCN(C(=O)CN)CC1` was 59

Lab entry: UniProt:O75582 assay, compound `CN(C)C/C=C/C(=O)Nc1cccc(C(=O)Nc2ccc(Nc3nccc(-c4cccnc4)n3)cc2)c1` , residual activity = 88

Summary: `COc1ccc(N(C(=O)Nc2c(C)cccc2C)c2cc(Nc3ccc(N4CCN(C)CC4)cc3)ncn2)c(OC)c1` , UniProt:O75582, residual activity = 105

Let me check: `Cc1cc(NC(=O)c2cccc(NC(=O)/C=C/CN(C)C)c2)ccc1Nc1nccc(-c2cccnc2)n1` , system UniProt:O75582, measured residual activity is 91

Field residual activity (system: UniProt:O75582) for entry `O=C(Nc1nc2cc(C(F)(F)F)cc(NC3CC3)n2n1)c1cccnc1` = 114

Given the compound `O=C(O)c1ccc(-c2c[nH]c3ncc(-c4ccccc4)cc23)cc1C1CCCC1` and test system UniProt:O75582, the measured residual activity is 94

Measured on UniProt:O75582, `CNc1nc(-c2ccc3c(N)n[nH]c3c2)cc(N2C[C@@H](C(=O)NC3CCCCC3)CC[C@H]2C)n1` has a documented residual activity of 100

`O=C(NCCCNc1nc(Nc2cccc(CN3CCOCC3)c2)ncc1C1CC1)C1CCC1` tested on UniProt:O75582 gave residual activity: 98

The value of residual activity recorded for `COc1ccc(-n2ncc3cnc(Nc4cc(OC)c(OC)c(OCCCN5CCN(C)CC5)c4)nc32)cc1` when tested on UniProt:O75582 reads 76

The reported measurements were obtained from the kinase profiling compilation of Christmann-Franck et al. (2016).
